Entries and their percent at the stated concentration, ferroportin internalization/degradation assay
Molecular target: T1, human ferroportin (SLC40A1) fused in frame with GFP, stably expressed on HEK293 cells (human, UniProt Q9NP59 1-571)
T1 sequence (looked up): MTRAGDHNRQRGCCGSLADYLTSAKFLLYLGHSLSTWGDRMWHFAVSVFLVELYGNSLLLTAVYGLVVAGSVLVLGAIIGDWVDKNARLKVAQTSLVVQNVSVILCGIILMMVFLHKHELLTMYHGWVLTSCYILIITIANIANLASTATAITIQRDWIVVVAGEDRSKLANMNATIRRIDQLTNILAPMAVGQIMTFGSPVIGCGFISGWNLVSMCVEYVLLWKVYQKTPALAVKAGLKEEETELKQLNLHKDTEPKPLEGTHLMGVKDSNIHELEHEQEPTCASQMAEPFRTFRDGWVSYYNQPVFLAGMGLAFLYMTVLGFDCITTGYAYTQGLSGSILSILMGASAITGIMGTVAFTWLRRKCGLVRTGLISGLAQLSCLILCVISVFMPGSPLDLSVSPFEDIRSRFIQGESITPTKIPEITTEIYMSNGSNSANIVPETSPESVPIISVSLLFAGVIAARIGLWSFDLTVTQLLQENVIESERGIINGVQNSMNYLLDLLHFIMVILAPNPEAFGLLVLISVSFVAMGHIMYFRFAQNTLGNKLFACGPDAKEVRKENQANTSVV
Assay: cell-based or functional assay
property: percent at the stated concentration, ferroportin internalization/degradation assay (% at 10 uM)

{"columns": ["binder", "unit_text", "number"],
 "data": [
  ["H-DTHFPCRIF-NH2 [Hy-DTHFPCRIF-NH2]", "% at 10 uM", 31],
  ["H-DTHFPCVIF-NH2 [Hy-DTHFPCVIF-NH2]", "% at 10 uM", 81],
  ["H-DTHFPCKIF-NH2 [Hy-DTHFPCKIF-NH2]", "% at 10 uM", 9],
  ["H-DTHFPCRF-NH2 [Hy-DTHFPCRF-NH2]", "% at 10 uM", 31]
]}
